Below is a list of entries, each paired with its recorded IC50 value.
- System: HCT-116
- experiment: Antiproliferative activity against human HCT116 cells over-expressing LSD1 assessed as reduction in cell viability measured after 72 hrs by MTT assay
- condition-summary: HCT-116, 72 h
Use µM as the unit, but write only the number.

Some molecules with recorded IC50:
[
  {
    "chemical-structure": "O=C(N/N=C1\\CCc2c(Cl)ccc(O)c21)c1cccc(S(=O)(=O)N2CCOCC2)c1",
    "IC50 [µM]": 0.48
  },
  {
    "chemical-structure": "C/C(=N\\NC(=O)c1cccc(S(=O)(=O)N2CCOCC2)c1)c1cc(Cl)ccc1O",
    "IC50 [µM]": 0.65
  }
]

Attention now shifts to the item below.
QUERY: Item under review: O=C(N/N=C1\CCc2cccc(O)c21)c1cccc(S(=O)(=O)N2CCOCC2)c1 . Reported IC50?
RESULT: 0.36

###

- Test system: NCI-H1299
- experiment: Antiproliferative activity against human NCI-H1299 cells over-expressing LSD1 assessed as reduction in cell viability measured after 72 hrs by MTT assay
- condition-summary: NCI-H1299, 72 h
assay-readout: pIC50
Entry type: numeric. Quantity: pIC50, the -log10 of concentration in molar units.

[
  {
    "chemical-structure": "O=C(N/N=C1\\CCc2cccc(O)c21)c1cccc(S(=O)(=O)N2CCOCC2)c1",
    "assay-readout": "pIC50",
    "readout-value": 5.70
  },
  {
    "chemical-structure": "C/C(=N\\NC(=O)c1cccc(S(=O)(=O)N2CCOCC2)c1)c1cc(Cl)ccc1O",
    "assay-readout": "pIC50",
    "readout-value": 5.52
  }
]

Attention now shifts to the item below.
QUERY: Provide the documented pIC50 with NCI-H1299 as the system for O=C(N/N=C1\CCc2c(Cl)ccc(O)c21)c1cccc(S(=O)(=O)N2CCOCC2)c1
RESULT: 5.48

###

- Test system: MCF7
- experiment: Antiproliferative activity against human MCF7 cells over-expressing LSD1 assessed as reduction in cell viability measured after 96 hrs by MTT assay
- condition-summary: MCF7, 96 h
assay-readout: pIC50
Entry type: numeric. Quantity: pIC50, the -log10 of concentration in molar units.

Some compounds with recorded pIC50:
[
  {
    "chemical-structure": "C/C(=N\\NC(=O)c1cccc(S(=O)(=O)N2CCOCC2)c1)c1cc(Cl)ccc1O",
    "tested-on": "MCF7",
    "pIC50": 6.72
  },
  {
    "chemical-structure": "O=C(N/N=C1\\CCc2cccc(O)c21)c1cccc(S(=O)(=O)N2CCOCC2)c1",
    "tested-on": "MCF7",
    "pIC50": 6.66
  }
]

Attention now shifts to the item below.
QUERY: Item under review: O=C(N/N=C1\CCc2c(Cl)ccc(O)c21)c1cccc(S(=O)(=O)N2CCOCC2)c1 . Reported pIC50?
RESULT: 6.52

###

- Tested on: A2780
- experiment: Antiproliferative activity against human A2780 cells over-expressing LSD1 assessed as reduction in cell viability measured after 72 hrs by MTT assay
- condition-summary: A2780, 72 h
assay-readout: IC50
Respond with the figure and its unit, in that order.

[
  {
    "chemical-structure": "O=C(N/N=C1\\CCc2c(Cl)ccc(O)c21)c1cccc(S(=O)(=O)N2CCOCC2)c1",
    "assay-readout": "IC50",
    "readout-value": "1130 nM"
  },
  {
    "chemical-structure": "C/C(=N\\NC(=O)c1cccc(S(=O)(=O)N2CCOCC2)c1)c1cc(Cl)ccc1O",
    "assay-readout": "IC50",
    "readout-value": "2140 nM"
  }
]

Attention now shifts to the item below.
QUERY: Item under review: O=C(N/N=C1\CCc2cccc(O)c21)c1cccc(S(=O)(=O)N2CCOCC2)c1 . Reported IC50?
RESULT: 810 nM

###

Below is a list of entries, each paired with its recorded pIC50 value.
- System: DU-145
- experiment: Antiproliferative activity against human DU145 cells over-expressing LSD1 assessed as reduction in cell viability measured after 72 hrs by MTT assay
- condition-summary: DU-145, 72 h
Entry type: numeric. Quantity: pIC50, the -log10 of concentration in molar units.

[
  {
    "chemical-structure": "C/C(=N\\NC(=O)c1cccc(S(=O)(=O)N2CCOCC2)c1)c1cc(Cl)ccc1O",
    "pIC50": 4.88
  },
  {
    "chemical-structure": "O=C(N/N=C1\\CCc2c(Cl)ccc(O)c21)c1cccc(S(=O)(=O)N2CCOCC2)c1",
    "pIC50": 5.53
  }
]

QUERY: Item under review: O=C(N/N=C1\CCc2cccc(O)c21)c1cccc(S(=O)(=O)N2CCOCC2)c1 . Reported pIC50?
RESULT: 5.60

###

- System: A549
- experiment: Antiproliferative activity against human A549 cells over-expressing LSD1 assessed as reduction in cell viability measured after 72 hrs by MTT assay
- condition-summary: A549, 72 h
assay-readout: pIC50
Entry type: numeric. Quantity: pIC50, the -log10 of concentration in molar units.

Some compounds with recorded pIC50:
[
  {
    "chemical-structure": "O=C(N/N=C1\\CCc2cccc(O)c21)c1cccc(S(=O)(=O)N2CCOCC2)c1",
    "pIC50": 6.04
  },
  {
    "chemical-structure": "O=C(N/N=C1\\CCc2c(Cl)ccc(O)c21)c1cccc(S(=O)(=O)N2CCOCC2)c1",
    "pIC50": 6.11
  }
]

Attention now shifts to the item below.
QUERY: Provide the documented pIC50 with A549 as the system for C/C(=N\NC(=O)c1cccc(S(=O)(=O)N2CCOCC2)c1)c1cc(Cl)ccc1O
RESULT: 5.57

###

Below is a list of entries, each paired with its recorded pIC50 value.
- Test system: MCF7
- experiment: Antiproliferative activity against human MCF7 cells over-expressing LSD1 assessed as reduction in cell viability measured after 72 hrs by MTT assay
- condition-summary: MCF7, 72 h
Entry type: numeric. Quantity: pIC50, the -log10 of concentration in molar units.

Some compounds with recorded pIC50:
[
  {
    "chemical-structure": "C/C(=N\\NC(=O)c1cccc(S(=O)(=O)N2CCOCC2)c1)c1cc(Cl)ccc1O",
    "pIC50": 6.36
  },
  {
    "chemical-structure": "O=C(N/N=C1\\CCc2cccc(O)c21)c1cccc(S(=O)(=O)N2CCOCC2)c1",
    "pIC50": 6.52
  }
]

Attention now shifts to the item below.
QUERY: Item under review: O=C(N/N=C1\CCc2c(Cl)ccc(O)c21)c1cccc(S(=O)(=O)N2CCOCC2)c1 . Reported pIC50?
RESULT: 6.39

###

- Tested on: NCI-H1299
- experiment: Antiproliferative activity against human NCI-H1299 cells over-expressing LSD1 assessed as reduction in cell viability measured after 96 hrs by MTT assay
- condition-summary: NCI-H1299, 96 h
Below is a list of entries, each paired with its recorded IC50 value.
Use nM as the unit, but write only the number.

[
  {
    "chemical-structure": "C/C(=N\\NC(=O)c1cccc(S(=O)(=O)N2CCOCC2)c1)c1cc(Cl)ccc1O",
    "tested-on": "NCI-H1299",
    "measurement-units": "nM",
    "readout-value": 1730
  },
  {
    "chemical-structure": "O=C(N/N=C1\\CCc2c(Cl)ccc(O)c21)c1cccc(S(=O)(=O)N2CCOCC2)c1",
    "tested-on": "NCI-H1299",
    "measurement-units": "nM",
    "readout-value": 980
  }
]

QUERY: Item under review: O=C(N/N=C1\CCc2cccc(O)c21)c1cccc(S(=O)(=O)N2CCOCC2)c1 . Reported IC50?
RESULT: 790

###

- Test system: SMMC-7721
- experiment: Antiproliferative activity against human SMMC7721 over-expressing LSD1 cells assessed as reduction in cell viability measured after 72 hrs by MTT assay
- condition-summary: SMMC-7721, 72 h
Below is a list of entries, each paired with its recorded IC50 value.
Use µM as the unit, but write only the number.

Some compounds with recorded IC50:
[
  {
    "chemical-structure": "O=C(N/N=C1\\CCc2c(Cl)ccc(O)c21)c1cccc(S(=O)(=O)N2CCOCC2)c1",
    "measurement-units": "µM",
    "IC50": 3.16
  },
  {
    "chemical-structure": "C/C(=N\\NC(=O)c1cccc(S(=O)(=O)N2CCOCC2)c1)c1cc(Cl)ccc1O",
    "measurement-units": "µM",
    "IC50": 15.8
  }
]

Attention now shifts to the item below.
QUERY: Item under review: O=C(N/N=C1\CCc2cccc(O)c21)c1cccc(S(=O)(=O)N2CCOCC2)c1 . Reported IC50?
RESULT: 2.96
